assay.comment: AUC (0 to last) in Sprague-Dawley rat at 10 mg/kg, iv
Type: ADME, organism-based
condition.notes: in vivo
reported.endpoint: AUC(0-t)

**Q:** Look up AUC(0-t) for this molecule: COc1ccc(NS(=O)(=O)c2ccc3c(c2)c2ccc(NC(=O)[C@@H](N)C(C)C)cc2n3C)c(OC)n1.Cl
**A:** 2290 ng·h/mL

###

Test system: NCI-H460
assay.comment: Antiproliferation activity against human NCI-H460 cells measured after 72 hrs incubation by MTT assay
Assay type: functional, cell-based
condition.notes: NCI-H460, 72 h
pIC50: −log10 of the molar value.
Rule: pIC50 under 8 gives no, otherwise yes.

>  <molecule>
COc1cc([C@@H]2c3cc4c(cc3[C@H](O)[C@H]3COC(=O)[C@H]23)OCO4)cc(OC)c1OC [PODOFILOX]

>  <label>
no

$$$$
>  <molecule>
COc1ccc(NS(=O)(=O)c2ccc3c(c2)c2ccc(N)cc2n3C)cc1

>  <label>
no

$$$$
>  <molecule>
COc1ccc(OC)c(NS(=O)(=O)c2ccc3c(c2)c2ccc(N)cc2n3C)c1

>  <label>
no

$$$$
>  <molecule>
COc1ccc(/C=C\c2cc(OC)c(OC)c(OC)c2)cc1OP(=O)([O-])[O-].[Na+].[Na+] [FOSBRETABULIN DISODIUM]

>  <label>
yes

$$$$
>  <molecule>
COc1cc(OC)c(NS(=O)(=O)c2ccc3c(c2)c2ccc(N)cc2n3C)cc1Cl

>  <label>
no

$$$$

Next molecule, please.
**Q:** Evaluate COc1cc(NS(=O)(=O)c2ccc3c(c2)c2ccc(N)cc2n3C)c(OC)cc1N : pIC50 at minimum 8?
**A:** no
